# protocol description: Metabolic stability in rhesus monkey plasma assessed as compound remaining after 30 mins by radio-HPLC analysis
# Type: ADME, cell-free, Macaca mulatta
# conditions used: read-out: Stability
parameter measured: remaining at 0.5 h

>>> print(df.to_string())
                            smiles_notation  assay_value
0  CNc1cc(-c2csc(N(C)C(=O)c3ccc([18F])cc3)n2)ncn1        98.9%

---

# protocol description: Fraction unbound in rhesus monkey plasma by radio-HPLC analysis
# Assay type: ADME, cell-free, Macaca mulatta
parameter measured: fraction unbound

                            smiles_notation  assay_value
0  CNc1cc(-c2csc(N(C)C(=O)c3ccc([18F])cc3)n2)ncn1       0.0123

---

# study target: D(2) dopamine receptor (Homo sapiens, UniProt P14416)
# Sequence (P14416 whole entry): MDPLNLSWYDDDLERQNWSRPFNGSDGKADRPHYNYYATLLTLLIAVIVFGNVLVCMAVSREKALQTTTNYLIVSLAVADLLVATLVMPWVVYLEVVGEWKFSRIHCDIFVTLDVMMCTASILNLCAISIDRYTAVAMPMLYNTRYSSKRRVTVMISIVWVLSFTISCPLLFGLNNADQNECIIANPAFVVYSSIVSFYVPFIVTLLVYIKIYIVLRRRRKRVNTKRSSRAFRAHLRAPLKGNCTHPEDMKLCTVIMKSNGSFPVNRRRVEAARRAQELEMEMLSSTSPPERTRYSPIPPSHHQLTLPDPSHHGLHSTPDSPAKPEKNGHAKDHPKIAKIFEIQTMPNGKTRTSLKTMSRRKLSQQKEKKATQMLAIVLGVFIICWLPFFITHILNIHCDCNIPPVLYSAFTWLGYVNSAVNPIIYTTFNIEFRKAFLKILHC
# protocol description: Binding affinity to human dopamine D2 receptor by PDSP assay
pKi: −log10 of the molar value.
parameter measured: pKi

In [3]: df
Out[3]:
                            smiles_notation  assay_value
0  CNc1cc(-c2csc(N(C)C(=O)c3ccc(F)cc3)n2)ncn1       < 5.00

---

# study target: Muscarinic acetylcholine receptor M3 (Homo sapiens, UniProt P20309)
# Sequence (P20309 whole entry): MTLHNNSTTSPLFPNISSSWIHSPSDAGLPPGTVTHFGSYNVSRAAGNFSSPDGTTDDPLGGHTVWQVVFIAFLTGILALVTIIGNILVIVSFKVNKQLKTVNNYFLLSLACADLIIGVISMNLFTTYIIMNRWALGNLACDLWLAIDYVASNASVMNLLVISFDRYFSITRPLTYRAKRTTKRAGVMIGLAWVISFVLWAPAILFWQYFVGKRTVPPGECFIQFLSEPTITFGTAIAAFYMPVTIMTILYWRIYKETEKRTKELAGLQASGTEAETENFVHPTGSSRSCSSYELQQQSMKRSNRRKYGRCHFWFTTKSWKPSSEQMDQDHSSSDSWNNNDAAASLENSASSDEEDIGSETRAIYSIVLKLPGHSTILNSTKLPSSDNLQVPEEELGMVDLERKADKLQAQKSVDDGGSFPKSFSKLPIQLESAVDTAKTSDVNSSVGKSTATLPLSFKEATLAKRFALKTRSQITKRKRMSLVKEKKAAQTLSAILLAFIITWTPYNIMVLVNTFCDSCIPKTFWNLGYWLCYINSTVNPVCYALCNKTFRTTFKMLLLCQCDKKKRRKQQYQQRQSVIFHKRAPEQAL
pKi: −log10 of the molar value.
parameter measured: pKi

In [3]: df
Out[3]:
                            smiles_notation  assay_value
0  CNc1cc(-c2csc(N(C)C(=O)c3ccc(F)cc3)n2)ncn1       < 5.00

---

# study target: D(1A) dopamine receptor (Homo sapiens)
# Sequence (P21728 whole entry): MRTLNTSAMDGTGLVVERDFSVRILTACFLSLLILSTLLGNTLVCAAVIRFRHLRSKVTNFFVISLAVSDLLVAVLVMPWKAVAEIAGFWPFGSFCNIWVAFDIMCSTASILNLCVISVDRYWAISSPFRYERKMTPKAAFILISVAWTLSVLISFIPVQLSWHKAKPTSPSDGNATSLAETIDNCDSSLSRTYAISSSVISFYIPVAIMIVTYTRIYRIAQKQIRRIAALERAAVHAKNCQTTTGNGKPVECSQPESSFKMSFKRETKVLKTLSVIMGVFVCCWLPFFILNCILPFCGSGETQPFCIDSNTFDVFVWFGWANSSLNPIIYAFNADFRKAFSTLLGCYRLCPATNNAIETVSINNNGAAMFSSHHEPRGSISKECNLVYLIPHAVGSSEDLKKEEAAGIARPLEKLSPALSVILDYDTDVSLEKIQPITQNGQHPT
# protocol description: Binding affinity to human dopamine D1 receptor by PDSP assay
pKi: −log10 of the molar value.
parameter measured: pKi

>>> df
                            smiles_notation                            study_target  assay_value
0  CNc1cc(-c2csc(N(C)C(=O)c3ccc(F)cc3)n2)ncn1  D(1A) dopamine receptor (Homo sapiens)       < 5.00

---

# study target: 5-hydroxytryptamine receptor 2C (Homo sapiens)
# Sequence (P28335 whole entry): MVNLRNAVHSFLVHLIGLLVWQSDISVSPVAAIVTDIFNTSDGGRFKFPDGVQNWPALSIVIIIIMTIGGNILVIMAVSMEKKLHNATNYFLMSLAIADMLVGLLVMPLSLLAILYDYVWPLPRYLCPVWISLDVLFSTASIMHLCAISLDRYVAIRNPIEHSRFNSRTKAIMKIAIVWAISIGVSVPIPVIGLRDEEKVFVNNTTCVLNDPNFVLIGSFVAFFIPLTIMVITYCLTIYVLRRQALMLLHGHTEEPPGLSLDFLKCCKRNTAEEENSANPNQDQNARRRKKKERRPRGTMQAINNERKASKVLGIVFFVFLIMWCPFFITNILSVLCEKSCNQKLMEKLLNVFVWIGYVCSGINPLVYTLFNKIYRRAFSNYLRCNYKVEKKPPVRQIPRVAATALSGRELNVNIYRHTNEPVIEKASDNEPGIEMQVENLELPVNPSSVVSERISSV
parameter measured: Ki

>>> print(df.to_string())
                            smiles_notation  assay_value
0  CNc1cc(-c2csc(N(C)C(=O)c3ccc(F)cc3)n2)ncn1      > 10 µM

---

# study target: Beta-2 adrenergic receptor (Homo sapiens, UniProt P07550)
# Sequence (P07550 whole entry): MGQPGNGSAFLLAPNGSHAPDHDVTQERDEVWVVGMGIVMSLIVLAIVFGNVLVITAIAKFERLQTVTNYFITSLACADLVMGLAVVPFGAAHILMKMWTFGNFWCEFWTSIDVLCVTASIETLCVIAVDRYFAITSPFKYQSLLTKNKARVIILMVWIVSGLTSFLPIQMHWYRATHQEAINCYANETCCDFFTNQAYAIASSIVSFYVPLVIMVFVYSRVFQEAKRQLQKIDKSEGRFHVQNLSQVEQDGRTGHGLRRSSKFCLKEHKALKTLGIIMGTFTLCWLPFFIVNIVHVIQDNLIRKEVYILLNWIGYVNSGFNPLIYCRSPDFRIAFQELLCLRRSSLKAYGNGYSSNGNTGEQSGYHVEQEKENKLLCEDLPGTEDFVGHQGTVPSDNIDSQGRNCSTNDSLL
pKi: −log10 of the molar value.
parameter measured: pKi

>>> df
                            smiles_notation  assay_value
0  CNc1cc(-c2csc(N(C)C(=O)c3ccc(F)cc3)n2)ncn1       < 5.00

---

# study target: Alpha-2B adrenergic receptor (Homo sapiens, UniProt P18089)
# Sequence (P18089 whole entry): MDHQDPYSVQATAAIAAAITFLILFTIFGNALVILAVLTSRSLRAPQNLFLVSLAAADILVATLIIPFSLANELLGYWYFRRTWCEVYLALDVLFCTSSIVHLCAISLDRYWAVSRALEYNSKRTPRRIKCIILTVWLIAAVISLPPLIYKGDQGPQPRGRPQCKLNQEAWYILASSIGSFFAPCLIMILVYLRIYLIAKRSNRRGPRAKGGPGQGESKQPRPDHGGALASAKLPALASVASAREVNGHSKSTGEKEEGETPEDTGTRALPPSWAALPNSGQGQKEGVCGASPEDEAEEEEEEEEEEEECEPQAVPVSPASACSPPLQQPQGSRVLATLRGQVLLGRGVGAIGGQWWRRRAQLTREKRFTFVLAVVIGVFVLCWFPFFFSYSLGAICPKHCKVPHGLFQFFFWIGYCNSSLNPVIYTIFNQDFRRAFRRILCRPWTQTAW
pKi: −log10 of the molar value.
parameter measured: pKi

>>> print(df.to_string())
                            smiles_notation  assay_value
0  CNc1cc(-c2csc(N(C)C(=O)c3ccc(F)cc3)n2)ncn1       < 5.00

---

# study target: Alpha-2C adrenergic receptor (Homo sapiens)
# Sequence (P18825 whole entry): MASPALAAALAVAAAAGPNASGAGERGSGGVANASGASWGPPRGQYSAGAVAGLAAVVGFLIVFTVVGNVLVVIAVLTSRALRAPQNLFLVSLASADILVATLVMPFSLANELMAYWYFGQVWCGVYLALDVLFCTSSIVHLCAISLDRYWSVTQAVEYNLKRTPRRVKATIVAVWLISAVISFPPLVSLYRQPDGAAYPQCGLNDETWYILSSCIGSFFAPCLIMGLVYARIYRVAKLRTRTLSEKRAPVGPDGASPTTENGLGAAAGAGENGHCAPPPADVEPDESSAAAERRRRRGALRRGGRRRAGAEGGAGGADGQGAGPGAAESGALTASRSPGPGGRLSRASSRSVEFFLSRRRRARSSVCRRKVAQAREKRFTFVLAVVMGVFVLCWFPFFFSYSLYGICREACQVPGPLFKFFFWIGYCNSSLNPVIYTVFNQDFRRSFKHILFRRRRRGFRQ
parameter measured: Ki

>>> print(df.to_string())
                            smiles_notation  parameter_measured  assay_value
0  CNc1cc(-c2csc(N(C)C(=O)c3ccc(F)cc3)n2)ncn1                  Ki      > 10 µM

---

# study target: Alpha-1A adrenergic receptor (Homo sapiens)
# Sequence (P35348 whole entry): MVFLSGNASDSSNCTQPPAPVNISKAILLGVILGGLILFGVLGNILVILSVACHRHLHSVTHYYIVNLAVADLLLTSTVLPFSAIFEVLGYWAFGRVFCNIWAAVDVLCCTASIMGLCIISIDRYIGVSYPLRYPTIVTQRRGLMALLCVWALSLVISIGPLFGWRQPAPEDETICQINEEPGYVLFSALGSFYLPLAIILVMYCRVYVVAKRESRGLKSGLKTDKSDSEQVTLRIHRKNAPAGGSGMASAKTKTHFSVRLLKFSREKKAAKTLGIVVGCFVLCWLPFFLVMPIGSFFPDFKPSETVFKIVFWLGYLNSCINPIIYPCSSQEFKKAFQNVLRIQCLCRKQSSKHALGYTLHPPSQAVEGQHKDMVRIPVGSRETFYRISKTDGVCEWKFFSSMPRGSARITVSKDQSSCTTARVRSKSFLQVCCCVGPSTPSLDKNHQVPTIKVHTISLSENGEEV
pKi: −log10 of the molar value.
parameter measured: pKi

                            smiles_notation  assay_value
0  CNc1cc(-c2csc(N(C)C(=O)c3ccc(F)cc3)n2)ncn1       < 5.00

---

# study target: 5-hydroxytryptamine receptor 1E (Homo sapiens)
# Sequence (P28566 whole entry): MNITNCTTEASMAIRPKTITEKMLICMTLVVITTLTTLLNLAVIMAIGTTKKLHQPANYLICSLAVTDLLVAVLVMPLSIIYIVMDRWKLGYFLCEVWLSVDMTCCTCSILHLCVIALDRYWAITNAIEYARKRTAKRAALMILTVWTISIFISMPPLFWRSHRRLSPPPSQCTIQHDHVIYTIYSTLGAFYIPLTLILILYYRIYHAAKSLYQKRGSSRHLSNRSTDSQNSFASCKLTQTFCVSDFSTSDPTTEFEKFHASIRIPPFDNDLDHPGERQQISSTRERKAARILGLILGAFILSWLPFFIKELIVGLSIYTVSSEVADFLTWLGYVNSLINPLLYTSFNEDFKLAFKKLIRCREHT
pKi: −log10 of the molar value.
parameter measured: pKi

>>> print(df.to_string())
                            smiles_notation                              study_target  assay_value
0  CNc1cc(-c2csc(N(C)C(=O)c3ccc(F)cc3)n2)ncn1  5-hydroxytryptamine receptor 1E (Homo sapiens)       < 5.00

---

Sequence of the target: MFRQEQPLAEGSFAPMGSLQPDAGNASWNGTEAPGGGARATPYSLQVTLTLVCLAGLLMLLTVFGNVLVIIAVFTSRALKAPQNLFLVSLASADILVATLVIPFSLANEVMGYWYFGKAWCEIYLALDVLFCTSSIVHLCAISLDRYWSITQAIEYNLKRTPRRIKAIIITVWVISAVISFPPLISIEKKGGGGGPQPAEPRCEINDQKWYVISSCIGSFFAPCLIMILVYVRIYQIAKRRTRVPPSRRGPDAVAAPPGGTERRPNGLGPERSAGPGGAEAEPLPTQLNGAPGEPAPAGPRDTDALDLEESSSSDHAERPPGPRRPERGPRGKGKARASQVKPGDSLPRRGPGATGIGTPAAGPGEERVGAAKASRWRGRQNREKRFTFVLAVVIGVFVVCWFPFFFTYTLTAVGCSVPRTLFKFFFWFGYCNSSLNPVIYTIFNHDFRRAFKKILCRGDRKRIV
parameter measured: Ki

>>> df
                            smiles_notation  parameter_measured  assay_value
0  CNc1cc(-c2csc(N(C)C(=O)c3ccc(F)cc3)n2)ncn1                  Ki      > 10 µM

---

# protocol description: Binding affinity to BZP site in rat brain by PDSP assay
# Assay type: tissue-based
parameter measured: Ki

>>> print(df.to_string())
                            smiles_notation  parameter_measured  assay_value
0  CNc1cc(-c2csc(N(C)C(=O)c3ccc(F)cc3)n2)ncn1                  Ki      > 10 µM

---

# study target: GABA-A receptor; agonist GABA site
# protocol description: Binding affinity to human GABAA receptor by PDSP assay
# Type: protein-complex assay
parameter measured: Ki

In [3]: df
Out[3]:
                            smiles_notation                        study_target  assay_value
0  CNc1cc(-c2csc(N(C)C(=O)c3ccc(F)cc3)n2)ncn1  GABA-A receptor; agonist GABA site      > 10 µM

---

# study target: Muscarinic acetylcholine receptor M5 (Homo sapiens)
# Sequence (P08912 whole entry): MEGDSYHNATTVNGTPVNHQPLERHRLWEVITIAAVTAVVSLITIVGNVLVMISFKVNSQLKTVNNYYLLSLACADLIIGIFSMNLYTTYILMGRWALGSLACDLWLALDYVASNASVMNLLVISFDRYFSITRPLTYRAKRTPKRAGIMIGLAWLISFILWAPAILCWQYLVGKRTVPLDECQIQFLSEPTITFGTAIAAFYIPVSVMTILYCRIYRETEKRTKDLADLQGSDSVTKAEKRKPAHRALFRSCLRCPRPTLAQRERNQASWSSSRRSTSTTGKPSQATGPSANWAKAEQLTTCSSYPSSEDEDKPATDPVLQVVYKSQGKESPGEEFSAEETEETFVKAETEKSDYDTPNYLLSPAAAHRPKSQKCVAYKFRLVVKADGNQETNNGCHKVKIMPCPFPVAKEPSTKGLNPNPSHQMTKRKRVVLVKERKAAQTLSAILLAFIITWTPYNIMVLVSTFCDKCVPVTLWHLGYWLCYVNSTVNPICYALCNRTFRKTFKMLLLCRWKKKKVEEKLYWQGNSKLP
# protocol description: Binding affinity to human muscarinic M5 receptor by PDSP assay
parameter measured: Ki

                            smiles_notation  assay_value
0  CNc1cc(-c2csc(N(C)C(=O)c3ccc(F)cc3)n2)ncn1      > 10 µM

---

# protocol description: Fraction unbound in human plasma by radio-HPLC analysis
# Format: ADME, cell-free
parameter measured: fraction unbound

>>> print(df.to_string())
                            smiles_notation  parameter_measured  assay_value
0  CNc1cc(-c2csc(N(C)C(=O)c3ccc([18F])cc3)n2)ncn1    fraction unbound       0.0114

---

# study target: Glutamate [NMDA] receptor
# protocol description: Binding affinity to human NMDA receptor by PDSP assay
pKi: −log10 of the molar value.
parameter measured: pKi

In [3]: df
Out[3]:
                            smiles_notation  assay_value
0  CNc1cc(-c2csc(N(C)C(=O)c3ccc(F)cc3)n2)ncn1       < 5.00
